test: Metabolic stability evaluation in mouse liver microsomes; type: in vitro ADME; settings: SD, pH 7.4; mouse liver microsomes 0.5 mg/mL, compound 1 μM, NADPH, 37° C.
Catalogue of half-life at 1 μM readings, one per entry.
MEASURED_PARAMETER: half-life at 1 μM

> print(dat)
                                   molecule  result.value
1  [2H]C([2H])(O)CONC(=O)c1cc2c(ncn2C([2H])([2H])[2H])c(F)c1Nc1ccc(Br)cc1Cl [A-5]        1.11 h
2  [2H]C([2H])(O)CONC(=O)c1cc2c(ncn2C)c(F)c1Nc1ccc(Br)cc1Cl [A-4]        0.94 h
3  Cn1cnc2c(F)c(Nc3ccc(Br)cc3Cl)c(C(=O)NOCCO)cc21 [Selumetinib, reference compound]       0.978 h
4  [2H]C([2H])([2H])n1cnc2c(F)c(Nc3ccc(Br)cc3Cl)c(C(=O)NOCCO)cc21 [A-1]        1.17 h
5  [2H]C([2H])(O)C([2H])([2H])ONC(=O)c1cc2c(ncn2C)c(F)c1Nc1ccc(Br)cc1Cl [A-6]        1.17 h

###

test system: HT-29 cells; assay: Cytotoxicity experiment: viability of HT-29 cells (CellTiter-Glo); type: cell-based; conditions: Homo sapiens, 72 hours, CTG analysis, read-out: HT-29 cell IC50
pIC50: −log10 of the molar value.
Catalogue of pIC50 readings, one per entry.
MEASURED_PARAMETER: pIC50

> print(dat)
                                   compound  result.value
1  [2H]C([2H])(O)CONC(=O)c1cc2c(ncn2C([2H])([2H])[2H])c(F)c1Nc1ccc(Br)cc1Cl        > 9.30
2  [2H]C([2H])([2H])n1cnc2c(F)c(Nc3ccc(Br)cc3Cl)c(C(=O)NOCCO)cc21        > 9.30
3  [2H]C([2H])(O)CONC(=O)c1cc2c(ncn2C)c(F)c1Nc1ccc(Br)cc1Cl        > 9.30
4  Cn1cnc2c(F)c(Nc3ccc(Br)cc3Cl)c(C(=O)NOCCO)cc21 [Selumetinib, reference compound]        > 9.30

###

assay: Metabolic stability evaluation in mouse liver microsomes; format: in vitro ADME; settings: SD, pH 7.4; liver intrinsic clearance, mouse liver microsomes 0.5 mg/mL, compound 1 μM
Catalogue of microsomal CLint at 1 μM readings, one per entry.
MEASURED_PARAMETER: microsomal CLint at 1 μM (µL/min/mg)

> print(dat)
                                   compound  unit.label  result.value
1  [2H]C([2H])(O)CONC(=O)c1cc2c(ncn2C)c(F)c1Nc1ccc(Br)cc1Cl [A-4]   µL/min/mg          24.6
2  [2H]C([2H])([2H])n1cnc2c(F)c(Nc3ccc(Br)cc3Cl)c(C(=O)NOCCO)cc21 [A-1]   µL/min/mg          19.7
3  Cn1cnc2c(F)c(Nc3ccc(Br)cc3Cl)c(C(=O)NOCCO)cc21 [Selumetinib, reference compound]   µL/min/mg          23.6
4  [2H]C([2H])(O)C([2H])([2H])ONC(=O)c1cc2c(ncn2C)c(F)c1Nc1ccc(Br)cc1Cl [A-6]   µL/min/mg          19.8
5  [2H]C([2H])(O)CONC(=O)c1cc2c(ncn2C([2H])([2H])[2H])c(F)c1Nc1ccc(Br)cc1Cl [A-5]   µL/min/mg          20.9
